- Test system: RXF 393
- ASSAY SUMMARY: NCI tumour cell line growth inhibition, 48 h
Active and inactive are the calls of the source. Cut-off read from the data, not from the text of the source: active = GI50 up to about 1.1 µM and inactive = higher.
GI50 for assorted compounds

Some compounds with recorded GI50:
COc1cc2c(cc1OC)[C@@H](Nc1ccc(C#N)cc1)C1COC(=O)[C@@H]1C2c1cc(OC)c(O)c(OC)c1 (stereo partly specified); 2.09 µM (inactive)
Cc1c2cccc-2c(OCCO)cc2c1[nH]c1ccccc12; 2.37 µM (inactive)
Cc1cc2nc3c(C#N)c4c(c(Cl)n3c2cc1C)CCC4; 16.6 µM (inactive)

Input "CCCCCCCCCCCC(=O)OCCOCCOCCOCCOCCOC(=O)CCCCCCCCCCC" . Output GI50: > 100 µM (inactive)

Input "O=S(=O)(O)c1ccc(-c2c3nc(c(-c4ccc(S(=O)(=O)O)cc4)c4ccc([nH]4)c(-c4ccc(S(=O)(=O)O)cc4)c4nc(c(-c5ccc(S(=O)(=O)O)cc5)c5ccc2[nH]5)C=C4)C=C3)cc1" . Output GI50: 19.9 µM (inactive)

Input CCc1cccc(CC)c1NC(=O)CC1SC(N)=NC1=O (stereo unspecified) . Output GI50: > 100 µM (inactive)

Input CCN(CC)CC1CN=C(N)O1 (stereo unspecified) . Output GI50: > 100 µM (inactive)

Input CCc1cccc(C)c1NC(=O)CC1Sc2ccccc2NC1=O (stereo unspecified) . Output GI50: 16.9 µM (inactive)

Input "Brc1cccc[n+]1-c1ccc2cc(-[n+]3ccccc3Br)ccc2c1" . Output GI50: 32 µM (inactive)

====

- Test system: T47D
- ASSAY SUMMARY: NCI tumour cell line growth inhibition, 48 h
Calls of active or inactive are those of the source. Cut-off read from the data, not from the text of the source: active = GI50 up to about 1.1 µM and inactive = higher.
Assign a class; possible classes are active, inactive

Study these solved cases before continuing.
CN(C)c1ccc(/C=C(\NC(=O)c2ccccc2)C(=O)Nc2ccccc2C(=O)NCc2ccccc2)cc1; inactive
COc1cc(OC)c2nc(C)c3c(c2c1)OCC3; inactive
CN1CCC2(c3ccccc3)CC(=O)/C(=C/c3ccc(Cl)c(Cl)c3)C1C2.[O-][Cl+3]([O-])([O-])O (stereo unspecified); inactive
Nc1nc(Nc2ccccc2)sc1C(=O)c1c[nH]c2ccccc12; inactive
CN(C(=O)c1ccccc1)C1CCCC(=O)CC1 (stereo unspecified); inactive
C=C(C)C12CC(COC(=O)c3ccccc3)C34OC5(OC1C3C1OC1(CO)C(O)C1(O)C(OC(=O)c3ccccc3)C(C)C(C(C)CCCCCCC5O)C14)O2 (stereo unspecified); inactive
CC/C(=C/OC)P1(=O)OC(C)(C)CN1C(C)(C)C (stereo unspecified); inactive
N#Cc1ccnc(C(=O)N2CCCC2C(=O)O)c1 (stereo unspecified); inactive

Any idea what this test logged for "OC1CSCCSCCCSCCSC1" ?
inactive

Any idea what this test logged for "CSc1nc(-c2ccccc2)nc(C(C#N)C#N)n1" ?
inactive

Any idea what this test logged for "COCCOc1nc(-c2ccccc2)nc2ccccc12" ?
inactive

Any idea what this test logged for COc1cc2c(cc1OC)[C@@H](Nc1ccc(C#N)cc1)C1COC(=O)[C@@H]1C2c1cc(OC)c(O)c(OC)c1 (stereo partly specified) ?
active

====

GI50 for assorted molecules
- Test system: MDA-MB-231
- ASSAY SUMMARY: NCI tumour cell line growth inhibition, 48 h
Activity calls are given as the source filed them. Cut-off read from the data, not from the text of the source: active = GI50 up to about 1.1 µM and inactive = higher.

Some molecules with recorded GI50:
Cc1cc2c(cc1-c1cc3c(cc1C)C(C(C)C)=C(O)C(=O)/C3=C\Nc1c3ccccc3nc3ccccc13)/C(=C/Nc1c3ccccc3nc3ccccc13)C(=O)C(O)=C2C(C)C; 4.55 µM (inactive)
CC(=O)OCC(C)C1=C(O)C(=O)C2(C)C/C=C(/C)CC/C=C(\C)CCC(O)C(C)CCC12 (stereo not given); 16.3 µM (inactive)
Nc1nc(Cl)c(C=O)c(NCC2(CO)CCC2)n1; 22.9 µM (inactive)
O=c1cc(N2CCOCC2)n2c(ccc3ccccc32)n1; > 100 µM (inactive)
O=C(NC(=S)Nc1ccc2c(c1)Sc1ccccc1O2)c1ccc([N+](=O)[O-])cc1; > 100 µM (inactive)

Input "O=C(/C=C/c1c(O)nc2ccccc2c1O)CC(=O)C(=O)Nc1cccc(O)c1" . Output GI50: > 100 µM (inactive)

Input Cc1ccc(NCC2CC/C(=C\c3ccc(Cl)cc3)C2=O)cc1 (stereo not given) . Output GI50: 11.4 µM (inactive)

Input "COc1ccc(CNc2nc3ccccc3nc2-c2cccs2)cc1" . Output GI50: 23.6 µM (inactive)

Input "Cc1cc2c(Br)cc(Br)c(O)c2nc1C(=O)c1ccccc1" . Output GI50: 20 µM (inactive)

Input "Cc1nc2c(o1)C(=O)c1ccccc1/C2=N/c1ccc(N2CCOCC2)cc1" . Output GI50: 2.7 µM (inactive)

====

GI50 for assorted molecules
- Test system: SK-MEL-28
- ASSAY SUMMARY: NCI tumour cell line growth inhibition, 48 h
Active and inactive are the calls of the source. No stated cut-off is given here; in the data, active = GI50 up to about 1.1 µM and inactive = higher.

Some molecules with recorded GI50:
C=C(CN(C)C)C1(c2ccccc2)CC2(CCCC2)C(=O)O1 (stereo unspecified); > 100 µM (inactive)
Oc1c(CN2CCOCC2)ccc2cccnc12; > 10 µM (inactive)
CC(=O)Oc1c(Br)ccc2cc(C(Br)Br)c(C(=O)c3ccccc3)nc12; 15.9 µM (inactive)
OC1CCN2Cc3ccccc3N=C12 (stereo unspecified); > 100 µM (inactive)
CN(C)c1nc(N)nc(CS)n1; > 100 µM (inactive)
O=C(CC(C(=O)c1cccs1)c1cccs1)c1ccsc1 (stereo unspecified); 47.5 µM (inactive)
Cc1ccc([N+](=O)[O-])cc1S(=O)(=O)Nc1ccc(C2=NN(c3ccc([N+](=O)[O-])cc3[N+](=O)[O-])C(c3cccs3)C2)cc1 (stereo unspecified); 56.5 µM (inactive)
NC1=CN(CCCO)C2=N/C(=C\c3ccco3)C(=O)N12; > 100 µM (inactive)
Nc1c(-c2nc3ccccc3s2)[n+]([O-])c2ccccc2[n+]1[O-]; 25.2 µM (inactive)
OCC1NC(COC2OC(CO)C(O)C(O)C2O)C(O)C(O)C1O (stereo unspecified); > 100 µM (inactive)

Input "O=C(/C=C/c1c(O)nc2ccccc2c1O)CC(=O)C(=O)Nc1cccc(O)c1" . Output GI50: > 100 µM (inactive)

====

- System: HCT-116
- ASSAY SUMMARY: NCI tumour cell line growth inhibition, 48 h
Active and inactive are the calls of the source. Cut-off read from the data, not from the text of the source: active = GI50 up to about 1.1 µM and inactive = higher.
Assign a class; possible classes are 1 = active, 0 = inactive

CC(C)=C1CCC(CN(C)C)C1=O (configuration not stated); 0

Any idea what this test logged for COc1ccc(N2C(=O)c3c4c(c5c([nH]c6ncccc65)c3C2=O)CCC(C(C)(C)C)C4)cc1 (configuration not stated) ?
0

Any idea what this test logged for "CCOC(=O)c1c(C)n(Cc2ccc(Cl)cc2Cl)c2c1cc(O)c1[nH]c3c(c12)CCCC3" ?
0

Any idea what this test logged for "Nc1ncc(Cc2nc3ccccc3s2)s1" ?
0

Any idea what this test logged for "COc1ccc(C2=Nc3ccccc3NC(=O)C2)cc1" ?
0

Any idea what this test logged for "Brc1ccc(-c2ccc(-c3ccc(Br)s3)s2)s1" ?
0

Any idea what this test logged for O=C1c2ccccc2CC12Cc1cc3c(cc1C2=O)CCC3 (configuration not stated) ?
0

Any idea what this test logged for "CN(C)CCN(C)c1ccc2c(=O)n(CCN(C)C)c(=O)n3c4ccccc4c(=O)c1c23" ?
1

Any idea what this test logged for "CC(C)=CCCc1c(C)ccc2c1C(=O)C(=O)C(C(C)C)=C2" ?
0

Any idea what this test logged for "N/C(S)=N/N=C/c1ccc(O)cn1" ?
0

Any idea what this test logged for CC/C(=C/OC)P1(=O)OC(C)(C)CN1C(C)(C)C (configuration not stated) ?
0

Any idea what this test logged for COc1ccc(-c2c3c(n(C4OC(COC(C)=O)C(OC(C)=O)C(OC(C)=O)C4OC(C)=O)c(=S)c2C#N)CCCC3)cc1 (configuration not stated) ?
0

Any idea what this test logged for "Nc1c(/N=N/c2ccc(-c3ccc(/N=N/c4c(O)ccc5cc(S(=O)(=O)O)cc(S(=O)(=O)O)c45)cc3)cc2)c(S(=O)(=O)O)cc2cc(S(=O)(=O)O)c(/N=N/c3ccccc3)c(O)c12" ?
0

====

- Test system: OVCAR-4
- ASSAY SUMMARY: NCI tumour cell line growth inhibition, 48 h
Activity calls are given as the source filed them. No stated cut-off is given here; in the data, active = GI50 up to about 1.1 µM and inactive = higher. Where a SMILES comes first, the peptide text is derived from it. The star is where a group is joined. Cbz = O=C(OCc1ccccc1)*; Bn = c1ccc(C*)cc1
READOUT KIND: GI50

Some compounds with recorded GI50:
CCOc1ccc(/N=N/c2ccc3oc(=O)c(C(=O)Nc4ccc(OC)cc4)cc3c2)cc1; 7.1 µM (inactive)
COC(=O)C(Cc1ccc(O)cc1)NC(=O)C(COCc1ccccc1)NC(=O)OCc1ccccc1 (stereo not given) (Cbz-Ser(Bn)-Tyr-OMe; configuration not given here); 19.4 µM (inactive)
COc1ccc(C2=C3SC=c4ccccc4=C3ON=C2c2ccccc2)cc1; > 100 µM (inactive)
Cc1cccc(C)c1NC(=O)CCCC(=O)C1/C(=N/NC(=O)CC#N)CCC/C1=N\NC(=O)CC#N (stereo not given); > 100 µM (inactive)

Input Cc1cc(=O)oc2c(CNC(CC(C)C)C(=O)O)c(O)ccc12 (stereo not given) . Output GI50: > 100 µM (inactive)

Input "COc1ccc(/C=N/n2cnc3[nH]c(C)c(Cc4ccccc4)c3c2=N)cc1" . Output GI50: > 100 µM (inactive)

Input "CC1=Nc2nc3ccccc3n2C(C)(C)C1" . Output GI50: > 100 µM (inactive)

Input "OC1CSCCSCCCSCCSC1" . Output GI50: > 100 µM (inactive)

Input "CN(C)c1nc(N)nc(CS)n1" . Output GI50: 80.7 µM (inactive)

Input COc1cc(C2NCCC(c3ccccc3)(c3ccccc3)N2)cc(OC)c1OC (stereo not given) . Output GI50: 81.1 µM (inactive)
